assay: gradient 5% acetonitrile 3 min, to 50% in 2 min, to 85% in 15 min, held 3 min, 100 µL/min; details: column: Zorbax Extend-C18 2.1 x 50 mm; eluents: water / acetonitrile, 0.1% formic acid
readout_label: RP-LC retention time (s)

molecule	readout_label	readout_number
Cc1ccccc1OCC(=O)NCc1c(C)noc1C	RP-LC retention time	790
CCN(Cc1ccccc1)C(=O)C1CCCN(S(=O)(=O)c2ccc3c(c2)CCCC(=O)N3)C1 (centres undefined)	RP-LC retention time	821
CCCCNC(=O)c1nc(Nc2ccc(F)cc2)c2ccccc2n1	RP-LC retention time	796
N#Cc1c(N)nc(N)nc1Nc1ccc(Br)cc1	RP-LC retention time	777
